Below is a list of entries, each paired with its recorded IC50 value.
target: TYK2 (Homo sapiens); assay: Enzyme screening kinase assay, TYK2; format: biochemical; settings: Data 1; read-out: TYK2 IC50 Data 1
Sequence (P29597 whole entry): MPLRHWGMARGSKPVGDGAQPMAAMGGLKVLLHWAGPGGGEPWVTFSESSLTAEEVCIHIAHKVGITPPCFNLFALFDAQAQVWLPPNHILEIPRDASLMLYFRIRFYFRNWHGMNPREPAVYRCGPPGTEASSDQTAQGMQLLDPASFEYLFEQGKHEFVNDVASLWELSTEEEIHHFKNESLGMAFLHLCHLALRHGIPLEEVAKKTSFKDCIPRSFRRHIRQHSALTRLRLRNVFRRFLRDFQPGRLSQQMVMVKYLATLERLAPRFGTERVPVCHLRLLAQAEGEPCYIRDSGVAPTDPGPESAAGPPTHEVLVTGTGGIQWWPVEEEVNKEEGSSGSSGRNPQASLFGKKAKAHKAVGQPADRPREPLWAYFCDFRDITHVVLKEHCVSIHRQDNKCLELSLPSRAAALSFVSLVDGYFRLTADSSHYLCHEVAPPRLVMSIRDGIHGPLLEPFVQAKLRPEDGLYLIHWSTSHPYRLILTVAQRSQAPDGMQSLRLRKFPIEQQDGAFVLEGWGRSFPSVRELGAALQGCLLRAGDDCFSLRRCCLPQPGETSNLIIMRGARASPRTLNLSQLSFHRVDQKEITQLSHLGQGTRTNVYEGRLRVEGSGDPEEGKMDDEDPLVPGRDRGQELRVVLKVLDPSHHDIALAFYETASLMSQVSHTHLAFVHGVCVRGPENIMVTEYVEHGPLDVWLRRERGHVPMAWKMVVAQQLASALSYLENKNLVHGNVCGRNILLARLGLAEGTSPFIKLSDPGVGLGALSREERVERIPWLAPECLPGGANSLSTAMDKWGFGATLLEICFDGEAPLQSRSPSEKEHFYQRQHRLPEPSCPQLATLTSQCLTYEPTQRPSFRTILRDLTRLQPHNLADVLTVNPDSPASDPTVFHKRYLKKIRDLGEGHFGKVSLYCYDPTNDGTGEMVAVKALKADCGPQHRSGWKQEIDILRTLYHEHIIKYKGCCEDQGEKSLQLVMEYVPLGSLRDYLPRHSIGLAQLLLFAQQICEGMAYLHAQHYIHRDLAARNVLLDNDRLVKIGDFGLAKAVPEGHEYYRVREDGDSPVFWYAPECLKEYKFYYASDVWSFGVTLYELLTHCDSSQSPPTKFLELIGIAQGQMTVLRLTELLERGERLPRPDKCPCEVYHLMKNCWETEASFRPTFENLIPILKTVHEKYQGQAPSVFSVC
Field format: number, assumed nM, no unit text.

| SMILES_DATA | MEASURED_ENDPOINT | RECORDED_NUMBER |
| --- | --- | --- |
| N#CCNC(=O)c1ccc(-c2ccnc(Nc3ccc(N4CC5CCC(C4)O5)cc3)n2)cc1 | IC50 | 5.22 |
| N#CCNC(=O)c1ccc(-c2ccnc(Nc3ccc(N4CC5(COC5)C4)cc3)n2)cc1 | IC50 | 9.47 |

# input for lookup
Input line: Return IC50 for the following compound: N#CCNC(=O)c1ccc(-c2ccnc(Nc3ccc(N4CC[C@@]5(CCO5)C4)cc3)n2)cc1
Output line: 9.98

---

target: JAK2 (Homo sapiens); test: Enzyme screening kinase assay, JAK2; assay type: biochemical; details: Data 1; read-out: JAK2 IC50 Data 1
Sequence (O60674 whole entry): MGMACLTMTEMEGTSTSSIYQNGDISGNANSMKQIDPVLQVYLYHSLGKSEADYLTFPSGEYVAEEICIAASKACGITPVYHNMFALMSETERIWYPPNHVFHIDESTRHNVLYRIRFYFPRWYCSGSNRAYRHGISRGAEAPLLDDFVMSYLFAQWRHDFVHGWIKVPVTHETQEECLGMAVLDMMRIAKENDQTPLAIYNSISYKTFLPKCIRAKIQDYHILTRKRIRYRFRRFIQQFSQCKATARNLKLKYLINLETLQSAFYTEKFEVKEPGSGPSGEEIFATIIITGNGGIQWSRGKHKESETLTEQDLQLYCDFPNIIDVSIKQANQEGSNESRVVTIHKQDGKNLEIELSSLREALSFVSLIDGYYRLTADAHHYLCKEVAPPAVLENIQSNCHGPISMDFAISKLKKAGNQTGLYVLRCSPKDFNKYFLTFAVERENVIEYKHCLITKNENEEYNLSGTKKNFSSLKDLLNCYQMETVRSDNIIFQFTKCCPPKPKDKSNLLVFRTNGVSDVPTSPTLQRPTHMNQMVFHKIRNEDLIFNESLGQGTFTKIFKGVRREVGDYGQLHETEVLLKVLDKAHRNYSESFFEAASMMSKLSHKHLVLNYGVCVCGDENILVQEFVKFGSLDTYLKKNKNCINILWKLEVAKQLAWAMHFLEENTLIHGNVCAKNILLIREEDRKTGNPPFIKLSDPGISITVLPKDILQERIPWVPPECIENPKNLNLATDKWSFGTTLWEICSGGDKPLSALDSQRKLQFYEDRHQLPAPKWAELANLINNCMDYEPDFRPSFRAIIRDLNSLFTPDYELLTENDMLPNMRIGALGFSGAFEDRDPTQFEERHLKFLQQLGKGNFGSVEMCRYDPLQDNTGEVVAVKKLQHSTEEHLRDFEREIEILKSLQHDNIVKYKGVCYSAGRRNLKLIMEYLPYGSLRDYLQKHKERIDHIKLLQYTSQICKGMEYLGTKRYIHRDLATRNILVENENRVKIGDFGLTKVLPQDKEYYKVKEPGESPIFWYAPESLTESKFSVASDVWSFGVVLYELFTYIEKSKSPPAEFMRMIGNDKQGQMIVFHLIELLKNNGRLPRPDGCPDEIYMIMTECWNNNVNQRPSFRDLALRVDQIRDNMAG
Assign labels as follows, please: 1.0 for IC50 below 20 nM; 0.0 for IC50 equal to or exceeding 20 nM.

Input line: Please determine if N#CCNC(=O)c1ccc(-c2ccnc(Nc3ccc(N4CC[C@@]5(CCO5)C4)cc3)n2)cc1 is below 20 nM in terms of IC50.
Output line: 0.0

Input line: Check if IC50 falls below 20 nM for N#CCNC(=O)c1ccc(-c2ccnc(Nc3ccc(N4CC[C@]5(CCO5)C4)cc3)n2)cc1 .
Output line: 0.0

Input line: For N#CCNC(=O)c1ccc(-c2ccnc(Nc3ccc(N4C[C@H]5C[C@@H]4CO5)cc3)n2)cc1 , is the recorded IC50 below the cut-off of 20 nM?
Output line: 1.0

Input line: Does N#CCNC(=O)c1ccc(-c2ccnc(Nc3ccc(N4CC5(COC5)C4)cc3)n2)cc1 have IC50 strictly under 20 nM?
Output line: 1.0

Input line: For N#CCNC(=O)c1ccc(-c2ccnc(Nc3ccc(N4CC5CC(C4)O5)cc3)n2)cc1 , is the recorded IC50 below the cut-off of 20 nM?
Output line: 0.0

---

# pIC50 per entry
molecular target: UniProt:P23458; assay: Enzyme screening kinase assay, JAK1; type: biochemical; conditions: Data 1; read-out: JAK1 IC50 Data 1
Sequence (P23458 whole entry): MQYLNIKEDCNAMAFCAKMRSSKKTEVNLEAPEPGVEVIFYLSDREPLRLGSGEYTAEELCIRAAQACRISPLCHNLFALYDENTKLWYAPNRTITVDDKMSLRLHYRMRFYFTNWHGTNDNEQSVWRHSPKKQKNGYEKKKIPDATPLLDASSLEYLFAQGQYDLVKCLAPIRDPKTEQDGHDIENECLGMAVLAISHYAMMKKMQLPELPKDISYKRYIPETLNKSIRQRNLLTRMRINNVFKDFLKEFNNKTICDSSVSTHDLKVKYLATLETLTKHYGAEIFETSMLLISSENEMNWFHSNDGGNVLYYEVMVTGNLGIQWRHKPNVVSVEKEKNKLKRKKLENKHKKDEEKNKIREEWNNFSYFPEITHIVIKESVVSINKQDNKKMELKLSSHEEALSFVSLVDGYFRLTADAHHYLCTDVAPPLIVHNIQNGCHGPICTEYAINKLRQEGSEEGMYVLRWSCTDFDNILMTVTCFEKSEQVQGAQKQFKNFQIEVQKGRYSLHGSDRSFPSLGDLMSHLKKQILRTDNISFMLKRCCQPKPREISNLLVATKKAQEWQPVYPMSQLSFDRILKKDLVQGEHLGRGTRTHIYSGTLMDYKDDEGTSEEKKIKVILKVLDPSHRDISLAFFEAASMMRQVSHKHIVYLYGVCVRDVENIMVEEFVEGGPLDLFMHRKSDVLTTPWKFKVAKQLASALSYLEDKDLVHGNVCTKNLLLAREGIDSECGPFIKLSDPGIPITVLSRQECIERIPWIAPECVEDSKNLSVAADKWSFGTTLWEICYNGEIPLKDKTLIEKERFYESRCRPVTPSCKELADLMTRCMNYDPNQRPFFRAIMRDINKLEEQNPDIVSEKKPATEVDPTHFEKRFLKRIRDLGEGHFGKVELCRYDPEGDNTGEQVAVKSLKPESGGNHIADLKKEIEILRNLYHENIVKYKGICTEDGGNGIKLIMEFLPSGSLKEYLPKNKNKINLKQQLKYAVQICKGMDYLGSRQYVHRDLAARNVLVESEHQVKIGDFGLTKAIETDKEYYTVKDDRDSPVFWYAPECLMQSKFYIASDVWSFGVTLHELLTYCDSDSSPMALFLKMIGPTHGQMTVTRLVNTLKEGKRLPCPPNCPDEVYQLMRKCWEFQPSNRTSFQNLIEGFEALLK
Units for pIC50: none; it is -log10 of a concentration expressed in mol/L.

The following compounds have reported results that may help.
| SMILES_DATA | pIC50 |
| --- | --- |
| N#CCNC(=O)c1ccc(-c2ccnc(Nc3ccc(N4CC[C@]5(CCO5)C4)cc3)n2)cc1 | 7.50 |
| N#CCNC(=O)c1ccc(-c2ccnc(Nc3ccc(N4C[C@H]5C[C@@H]4CO5)cc3)n2)cc1 | 7.80 |

Input line: Query pIC50 for N#CCNC(=O)c1ccc(-c2ccnc(Nc3ccc(N4CCC5(CCO5)CC4)cc3)n2)cc1
Output line: 7.51

---

molecular target: TYK2 (Homo sapiens); assay: Enzyme screening kinase assay, TYK2; type: biochemical; conditions: Data 2; read-out: TYK2 IC50 Data 2
MEASURED_ENDPOINT: IC50 (nM)
Return type: number; implicit unit nM.

| SMILES_DATA | MEASURED_ENDPOINT | RECORDED_NUMBER |
| --- | --- | --- |
| N#CCNC(=O)c1ccc(-c2ccnc(Nc3ccc(N4CC[C@]5(CCO5)C4)cc3)n2)cc1 | IC50 | 4.29 |

Input line: Give reported IC50 value for N#CCNC(=O)c1ccc(-c2ccnc(Nc3ccc(N4CC5CCC(C4)O5)cc3)n2)cc1
Output line: 6.17

Input line: Please list IC50 recorded for the compound N#CCNC(=O)c1ccc(-c2ccnc(Nc3ccc(N4CCC[C@@]5(CCO5)C4)cc3)n2)cc1
Output line: 2.14

Input line: Identify IC50 associated with the compound N#CCNC(=O)c1ccc(-c2ccnc(Nc3ccc(N4CC5CC(C4)O5)cc3)n2)cc1
Output line: 7.3

Input line: Provide IC50 value for the following compound: N#CCNC(=O)c1ccc(-c2ccnc(Nc3ccc(N4CC5(COC5)C4)cc3)n2)cc1
Output line: 8.54
